FYI, the data here is from patent US20260042764A1.

- test_system: Avi-KRAS WT (1-169) GppNHp/RAF1 RBD-3xFLAG (52-151) (Homo sapiens, UniProt P01116)
- Construct: Avi-KRAS WT (1-169)
- Sequence (P01116 1-169 isoform P01116-2): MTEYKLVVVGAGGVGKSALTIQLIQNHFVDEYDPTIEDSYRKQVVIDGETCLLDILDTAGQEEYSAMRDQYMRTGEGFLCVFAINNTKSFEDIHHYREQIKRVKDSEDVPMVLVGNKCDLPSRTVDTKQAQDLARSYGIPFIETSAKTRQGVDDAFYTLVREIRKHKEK
- procedure_text: Raf1-KRAS WT-GppNHP disruption HTRF assay (Biological Example 1)
- Format: binding
- condition_details: KRAS WT, GppNHp-loaded; class symbols
Measured IC50 accompanies every entry in the list below.

Study these solved cases before continuing.
>>> observed_result("CCN(c1nc(OC[C@@]23CCCN2C[C@H](F)C3)nc2c(F)c(-c3ccc(F)c4sc(N)c(C#N)c34)c(C(F)(F)F)cc12)[C@H]1CCN(C(=O)N(C)C2COC2)C1 (atropisomer, axis not shown) [Compound 598]")
"< 100 nM"
>>> observed_result("CCN(c1nc(OC[C@@]23CCCN2C[C@H](F)C3)nc2c(F)c(-c3ccc(F)c4sc(N)c(C#N)c34)c(C(F)(F)F)cc12)[C@H]1C[C@H](C)N(C(=O)[C@H](C)OC)C1 (atropisomer, axis not shown) [Compound 739]")
"< 100 nM"

Input: For the compound Cc1c(C(=O)N2CCOCC2)nn2c1CN(c1nc(OCC34CCCN3CC(F)C4)nc3c(F)c(-c4ccc(F)c5sc(N)c(C#N)c45)c(C(F)(F)F)cc13)CC2 (stereo not drawn) [Compound 741] , give its measured IC50 value.
Output: 100 to 1000 nM

* * *

Measured pIC50 accompanies every entry in the list below.
- test_system: Avi-KRAS G12V (2-169) GTP/RAF1 RBD-3xFLAG (51-131) (Homo sapiens, UniProt P01116, G12V)
- Construct: Avi-KRAS G12V (2-169)
- Sequence (P01116 2-169 isoform P01116-2 G12V): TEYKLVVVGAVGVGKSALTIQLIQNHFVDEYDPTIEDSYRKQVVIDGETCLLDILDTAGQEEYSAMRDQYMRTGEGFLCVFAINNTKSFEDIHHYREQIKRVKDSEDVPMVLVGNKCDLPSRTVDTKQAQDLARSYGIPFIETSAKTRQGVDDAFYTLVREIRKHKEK
- procedure_text: Raf1-KRAS G12V-GTP disruption HTRF assay (Biological Example 3)
- Type: binding
- condition_details: KRAS G12V, GTP-loaded
pIC50: −log10 of the molar value.

>>> observed_result("CCN(c1nc(OC[C@@]23CCCN2C[C@H](F)C3)nc2c(F)c(-c3ccc(F)c4sc(N)c(C#N)c34)c(C(F)(F)F)cc12)[C@H]1C[C@H](COC)N(C(=O)N2CC(OC)C2)C1 (atropisomer, axis not shown)")
"6.00 to 7.00"
>>> observed_result("CCN(c1nc(OC[C@@]23CCCN2C[C@H](F)C3)nc2c(F)c(-c3ccc(F)c4sc(N)c(C#N)c34)c(C(F)(F)F)cc12)[C@H]1C[C@H]2CN(C(C)(C)C)C(=O)N2C1 (atropisomer, axis not shown)")
"5.00 to 6.00"
>>> observed_result("CCN(c1nc(OC[C@@]23CCCN2C[C@H](F)C3)nc2c(F)c(-c3ccc(F)c4sc(N)c(C#N)c34)c(C(F)(F)F)cc12)[C@H]1CCN(C(=O)N(C)C)[C@@H]1COC (atropisomer, axis not shown)")
"6.00 to 7.00"
>>> observed_result("C/C=C/C(=O)N1C[C@@H](N(CC)c2nc(OC[C@@]34CCCN3C[C@H](F)C4)nc3c(F)c(-c4ccc(F)c5sc(N)c(C#N)c45)c(C(F)(F)F)cc23)C[C@@H]1COC (atropisomer, axis not shown)")
"6.00 to 7.00"
>>> observed_result("CCN(c1nc(OC[C@@]23CCCN2C[C@H](F)C3)nc2c(F)c(-c3ccc(F)c4sc(N)c(C#N)c34)c(C(F)(F)F)cc12)[C@H]1CC[C@H](C(=O)N(C)C)C1 (atropisomer, axis not shown)")
"5.00 to 6.00"

Input: State pIC50 on Avi-KRAS G12V (2-169) GTP/RAF1 RBD-3xFLAG (51-131) (Homo sapiens, UniProt P01116, G12V). Entry: CCN(c1nc(OC[C@@]23CCCN2C[C@H](F)C3)nc2c(F)c(-c3ccc(F)c4sc(N)c(C#N)c34)c(C(F)(F)F)cc12)[C@@H]1C=C[C@H](C(=O)N(C)C)C1 (atropisomer, axis not shown)
Output: 5.00 to 6.00

Input: State pIC50 on Avi-KRAS G12V (2-169) GTP/RAF1 RBD-3xFLAG (51-131) (Homo sapiens, UniProt P01116, G12V). Entry: N#Cc1c(N)sc2c(F)ccc(-c3c(C(F)(F)F)cc4c(N5CCNS(=O)(=O)CC5)nc(OC[C@@]56CCCN5C[C@H](F)C6)nc4c3F)c12
Output: 6.00 to 7.00

Input: State pIC50 on Avi-KRAS G12V (2-169) GTP/RAF1 RBD-3xFLAG (51-131) (Homo sapiens, UniProt P01116, G12V). Entry: CN(c1nc(OC[C@@]23CCCN2C[C@H](F)C3)nc2c(F)c(-c3ccc(F)c4sc(N)c(C#N)c34)c(C(F)(F)F)cc12)[C@H]1CC(=O)N2CCC[C@H]12 (atropisomer, axis not shown)
Output: 6.00 to 7.00

Input: State pIC50 on Avi-KRAS G12V (2-169) GTP/RAF1 RBD-3xFLAG (51-131) (Homo sapiens, UniProt P01116, G12V). Entry: CCN(c1nc(OC[C@@]23CCCN2C[C@H](F)C3)nc2c(F)c(-c3ccc(F)c4sc(N)c(C#N)c34)c(C(F)(F)F)cc12)[C@H]1CCN(C(=O)C(CF)CF)C1 (atropisomer, axis not shown)
Output: 6.00 to 7.00

* * *

- Tested on: SW620 cells (KRAS G12V)
- procedure_text: Cell-based pERK HTRF assay in SW620 cell (Biological Example 4)
- condition_details: Homo sapiens, SW-620, SW620 (KRAS G12V) cells, pERK HTRF; class symbols
observation_type: IC50

>>> observed_result("CN(C)C(=O)N1CC[C@H](N(c2nc(OC[C@@]34CCCN3C[C@H](F)C4)nc3c(F)c(-c4ccc(F)c5sc(N)c(C#N)c45)c(C(F)(F)F)cc23)C2CC2)C1 (atropisomer, axis not shown) [Compound 743]")
"< 100 nM"

As a next step, examine the compound that follows.
Input: For the compound CCN(c1nc(OC[C@@]23CCCN2C[C@H](F)C3)nc2c(F)c(-c3ccc(F)c4sc(N)c(C#N)c34)c(C(F)(F)F)cc12)[C@H]1CCN(C(=O)OC2CCN(C(C)=O)CC2)C1 (atropisomer, axis not shown) [Compound 720] , give its measured IC50 value.
Output: < 100 nM

* * *

- test_system: Avi-KRAS G12D (1-169) GppNHp/RAF1 RBD-3xFLAG (52-151) (Homo sapiens, UniProt P01116, G12D)
- Construct: Avi-KRAS G12D (1-169)
- Sequence (P01116 1-169 isoform P01116-2 G12D): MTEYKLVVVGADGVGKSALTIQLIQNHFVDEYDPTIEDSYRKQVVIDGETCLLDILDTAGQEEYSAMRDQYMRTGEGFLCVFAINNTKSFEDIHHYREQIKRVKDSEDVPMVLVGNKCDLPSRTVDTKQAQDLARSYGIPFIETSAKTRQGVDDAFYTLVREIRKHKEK
- procedure_text: Raf1-KRAS G12D-GppNHP disruption HTRF assay (Biological Example 1)
- Type: binding
- condition_details: KRAS G12D, GppNHp-loaded; class symbols
- Protocol: A protein:protein interaction (PPI) Homogeneous Time Resolved Fluorescence (HTRF) assay was used to determine the effectiveness of compounds of the present disclosure in disrupting KRAS protein and effector RAF1 binding. The assay buffer included: 50 mM Tris pH 7.5, 100 mM NaCl, 5 mM MgCl2, 0.1% BSA, 0.01% Tween, and 10% DMSO. The bead buffer included: 50 mM Tris pH 7.5, and 0.01% Tween 20. […] Data was reported as percentage of activity, with DMSO as 100%. Data was plotted and analyzed using Prism 8.
Measured IC50 accompanies every entry in the list below.

>>> observed_result("CC(=O)N1CC[C@H](N(CCF)c2nc(OC[C@@]34CCCN3C[C@H](F)C4)nc3c(F)c(-c4ccc(F)c5sc(N)c(C#N)c45)c(C(F)(F)F)cc23)C1 (atropisomer, axis not shown)")
"< 0.1 µM"
>>> observed_result("CCN(c1nc(OCC23CCCN2CC(F)C3)nc2c(F)c(-c3ccc(F)c4sc(N)c(C#N)c34)c(C(F)(F)F)cc12)C1CC(C)N(C(=O)C2CC2(F)F)C1 (centres unmarked)")
"< 0.1 µM"
>>> observed_result("CCN(c1nc(OC[C@@]23CCCN2C[C@H](F)C3)nc2c(F)c(-c3ccc(F)c4sc(N)c(C#N)c34)c(C(F)(F)F)cc12)[C@H]1CCN(C(=O)OC2CN(C(C)=O)C2)C1 (atropisomer, axis not shown)")
"< 0.1 µM"
>>> observed_result("N#Cc1c(N)sc2c(F)ccc(-c3c(C(F)(F)F)cc4c(N5C[C@H]6C[C@@H]5CO6)nc(OC[C@]56C[C@@H](F)CN5CC5(CC5)C6)nc4c3F)c12")
"1 to 10 µM"

As a next step, examine the molecule that follows.
Input: For the molecule COC1CN(C(=O)N2CC[C@H](N(c3nc(OC[C@@]45CCCN4C[C@H](F)C5)nc4c(F)c(-c5ccc(F)c6sc(N)c(C#N)c56)c(C(F)(F)F)cc34)C3CC3)C2)C1 (atropisomer, axis not shown) , give its measured IC50 value.
Output: < 0.1 µM
